# Target Of Assay: VEGF-R2 (Rattus norvegicus)
# Construct: polyhistidine (N)
# Sequence (O08775 786-1343): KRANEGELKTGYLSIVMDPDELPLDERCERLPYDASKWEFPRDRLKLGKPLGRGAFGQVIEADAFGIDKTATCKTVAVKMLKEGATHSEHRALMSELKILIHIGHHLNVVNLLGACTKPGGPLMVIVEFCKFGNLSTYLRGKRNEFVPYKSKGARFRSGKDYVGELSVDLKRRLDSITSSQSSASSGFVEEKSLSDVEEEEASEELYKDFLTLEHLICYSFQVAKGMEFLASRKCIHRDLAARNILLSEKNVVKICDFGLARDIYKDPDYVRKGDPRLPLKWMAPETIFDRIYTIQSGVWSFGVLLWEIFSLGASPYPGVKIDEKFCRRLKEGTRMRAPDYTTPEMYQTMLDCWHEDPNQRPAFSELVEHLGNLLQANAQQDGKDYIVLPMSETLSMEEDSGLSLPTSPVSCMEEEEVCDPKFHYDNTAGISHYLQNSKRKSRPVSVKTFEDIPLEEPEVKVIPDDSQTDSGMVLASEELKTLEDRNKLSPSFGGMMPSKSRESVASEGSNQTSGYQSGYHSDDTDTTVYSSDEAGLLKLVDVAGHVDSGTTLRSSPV
# Assay Details: VEGF-R2 Screening Assay
# Assay type: biochemical
# Reported Conditions: 33P-γ-ATP incorporation, 10 μM ATP
Consider the cut-off 2 µM. If the recorded IC50 is strictly smaller, the label is Met; if not, the label is Not met.

Compound	Category Label
Cc1cc(CCN2CCN(C)CC2)ccc1Nc1nccc(-c2c[nH]c3ncccc23)n1 [Cpd 51]	Met
c1cnc2[nH]cc(-c3ccnc(NC4CCCCCC4)n3)c2c1 [Cpd 15]	Not met
CN(C)c1ccc(Nc2nccc(-c3c[nH]c4ncccc34)n2)cc1 [Cpd 38]	Met
CC1CCC(Nc2nccc(-c3c[nH]c4ncccc34)n2)CC1 (mixture of isomers) [Cpd 17]	Not met
CNCC[C@H]1CC[C@H](Nc2nccc(-c3c[nH]c4ncccc34)n2)CC1 [Cpd 78]	Not met
c1cnc2[nH]cc(-c3ccnc(NC4CCNCC4)n3)c2c1 [Cpd 65]	Met
CC(=O)NC1CCN(c2nccc(-c3c[nH]c4ncccc34)n2)CC1 [Cpd 63]	Not met
N[C@H]1CC[C@H](Nc2nccc(-c3c[nH]c4ncccc34)n2)CC1 [Cpd 42]	Not met
CCOc1ccc(Nc2nccc(-c3c[nH]c4ncccc34)n2)cc1 [Cpd 40]	Met
CCN(CC)CCc1ccc(Nc2nccc(-c3c[nH]c4ncccc34)n2)cc1 [Cpd 24]	Met
O[C@H]1CC[C@H](Nc2nccc(-c3c[nH]c4ncccc34)n2)CC1 [Cpd 18]	Met
c1cnc2[nH]cc(-c3ccnc(NC4CCOCC4)n3)c2c1 [Cpd 60]	Not met
Cc1cc(Br)ccc1Nc1nccc(-c2c[nH]c3ncccc23)n1 [Cpd 41]	Met
c1ccc(Nc2nccc(-c3c[nH]c4ncccc34)n2)cc1 [Cpd 3]	Met
Cc1ccc(Nc2nccc(-c3c[nH]c4ncccc34)n2)cc1 [Cpd 10]	Met
Oc1ccc(Nc2nccc(-c3c[nH]c4ncccc34)n2)cc1 [Cpd 39]	Met
COc1cccc(Nc2nccc(-c3c[nH]c4ncccc34)n2)c1 [Cpd 6]	Met
OCCc1ccc(Nc2nccc(-c3c[nH]c4ncccc34)n2)c(Cl)c1 [Cpd 52]	Met
CS(=O)(=O)n1cc(-c2ccnc(NC3CCCCC3)n2)c2cccnc21 [Cpd 67]	Met
Nc1ccc(Nc2nccc(-c3c[nH]c4ncccc34)n2)cc1 [Cpd 37]	Met
c1cnc2[nH]cc(-c3ccnc(Nc4ccc(CCN5CCNCC5)cc4)n3)c2c1 [Cpd 20]	Met
CN(C)CC(O)Cn1cc(-c2ccnc(N[C@H]3CC[C@H](O)CC3)n2)c2cccnc21 (relative stereo) [Cpd 76]	Not met
Clc1ccccc1Nc1nccc(-c2c[nH]c3ncccc23)n1 [Cpd 12]	Met
CN(C)CCc1ccc(Nc2nccc(-c3c[nH]c4ncccc34)n2)c(Cl)c1 [Cpd 54]	Not met
Cc1cccc(C)c1Nc1nccc(-c2c[nH]c3ncccc23)n1 [Cpd 35]	Met
c1cnc2[nH]cc(-c3ccnc(NC4CCCCC4)n3)c2c1 [Cpd 13]	Not met
Fc1ccccc1Nc1nccc(-c2c[nH]c3ncccc23)n1 [Cpd 31]	Met
Clc1cc(CCN2CCOCC2)ccc1Nc1nccc(-c2c[nH]c3ncccc23)n1 [Cpd 56]	Met
c1cnc2[nH]cc(-c3ccnc(NC4CCCC4)n3)c2c1 [Cpd 14]	Not met
Cc1ccc(Nc2nccc(-c3c[nH]c4ncccc34)n2)c(C)c1 [Cpd 33]	Met
OCCn1cc(-c2ccnc(N[C@H]3CC[C@H](O)CC3)n2)c2cccnc21 [Cpd 72]	Not met
CN1CCC(Nc2nccc(-c3c[nH]c4ncccc34)n2)CC1 [Cpd 61]	Not met
Cc1[nH]c2ncccc2c1-c1ccnc(N[C@H]2CC[C@H](N)CC2)n1 [Cpd 57]	Not met
OCCOc1ccc(Nc2nccc(-c3c[nH]c4ncccc34)n2)cc1 [Cpd 4]	Met
Brc1ccccc1Nc1nccc(-c2c[nH]c3ncccc23)n1 [Cpd 28]	Met
c1cnc2[nH]cc(-c3ccnc(NCC4CCCCC4)n3)c2c1 [Cpd 16]	Not met
Cc1cccc(Nc2nccc(-c3c[nH]c4ncccc34)n2)c1 [Cpd 9]	Met
CN1CCN(CCc2ccc(Nc3nccc(-c4c[nH]c5ncccc45)n3)c(Cl)c2)CC1 [Cpd 55]	Met
